target: active form of GP IIb/IIIa (Homo sapiens, UniProt P05106+P08514); experiment: Fluorescence displacement of probe 2-8 from active form of purified GP IIb/IIIa; format: binding; conditions: active form of GP IIb/IIIa, binds to RGDS affinity column; read-out: Ki of fluorescence antagonist 2-8 (used for the calculation)
Sequence (P08514 32-887 limits assumed): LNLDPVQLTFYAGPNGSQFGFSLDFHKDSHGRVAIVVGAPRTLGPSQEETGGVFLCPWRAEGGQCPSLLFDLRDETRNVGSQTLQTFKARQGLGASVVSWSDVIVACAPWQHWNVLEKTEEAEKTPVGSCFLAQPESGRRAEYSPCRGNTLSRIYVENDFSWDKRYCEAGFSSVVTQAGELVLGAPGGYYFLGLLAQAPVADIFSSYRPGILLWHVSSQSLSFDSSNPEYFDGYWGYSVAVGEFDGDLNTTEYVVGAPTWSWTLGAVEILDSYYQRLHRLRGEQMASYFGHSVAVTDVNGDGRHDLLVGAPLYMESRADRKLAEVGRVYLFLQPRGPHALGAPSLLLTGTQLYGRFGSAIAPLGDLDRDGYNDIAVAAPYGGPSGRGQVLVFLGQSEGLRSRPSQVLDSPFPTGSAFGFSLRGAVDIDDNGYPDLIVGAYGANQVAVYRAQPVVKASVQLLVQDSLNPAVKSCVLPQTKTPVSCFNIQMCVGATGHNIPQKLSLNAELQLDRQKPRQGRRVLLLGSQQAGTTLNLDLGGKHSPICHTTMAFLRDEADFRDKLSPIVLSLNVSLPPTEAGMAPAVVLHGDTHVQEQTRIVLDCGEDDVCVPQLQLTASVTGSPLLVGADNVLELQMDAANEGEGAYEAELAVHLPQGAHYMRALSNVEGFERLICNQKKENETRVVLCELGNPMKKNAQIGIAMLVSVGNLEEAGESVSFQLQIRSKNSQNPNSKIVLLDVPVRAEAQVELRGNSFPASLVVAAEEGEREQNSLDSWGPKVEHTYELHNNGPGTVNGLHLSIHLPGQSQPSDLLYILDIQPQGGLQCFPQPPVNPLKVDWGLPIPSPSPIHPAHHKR
Sequence (P08514 891-1039 partner limits assumed): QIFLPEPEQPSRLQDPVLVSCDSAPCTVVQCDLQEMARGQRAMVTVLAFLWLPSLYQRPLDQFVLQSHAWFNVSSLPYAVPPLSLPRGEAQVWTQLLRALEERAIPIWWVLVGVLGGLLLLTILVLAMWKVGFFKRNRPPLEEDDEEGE
Sequence (P05106 27-788): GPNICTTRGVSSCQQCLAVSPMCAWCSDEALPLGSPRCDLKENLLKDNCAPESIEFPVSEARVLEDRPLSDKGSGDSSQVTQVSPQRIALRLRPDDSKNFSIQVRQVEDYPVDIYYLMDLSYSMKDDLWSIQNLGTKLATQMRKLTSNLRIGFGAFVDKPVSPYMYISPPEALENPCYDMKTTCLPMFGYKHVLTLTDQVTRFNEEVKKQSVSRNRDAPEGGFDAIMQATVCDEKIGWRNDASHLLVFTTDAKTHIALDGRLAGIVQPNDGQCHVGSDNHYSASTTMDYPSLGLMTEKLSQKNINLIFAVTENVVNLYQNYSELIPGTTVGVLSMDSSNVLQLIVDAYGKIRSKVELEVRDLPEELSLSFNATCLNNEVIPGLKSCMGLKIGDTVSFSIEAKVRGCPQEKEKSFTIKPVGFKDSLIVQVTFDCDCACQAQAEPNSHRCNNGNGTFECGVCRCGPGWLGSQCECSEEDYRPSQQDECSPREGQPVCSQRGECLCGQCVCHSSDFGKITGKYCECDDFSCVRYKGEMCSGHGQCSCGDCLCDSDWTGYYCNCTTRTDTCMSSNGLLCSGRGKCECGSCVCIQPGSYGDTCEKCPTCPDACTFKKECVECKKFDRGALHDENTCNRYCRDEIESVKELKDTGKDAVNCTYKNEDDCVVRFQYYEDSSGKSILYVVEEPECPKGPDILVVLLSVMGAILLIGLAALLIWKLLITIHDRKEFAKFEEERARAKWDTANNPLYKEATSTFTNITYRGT
pKi: −log10 of the molar value.
measured-quantity: pKi

• CN(C)c1cccc2c(S(=O)(=O)N[C@@H](CNC(=O)c3ccc4c(c3)C(=O)N(CCC3CCNCC3)C4)C(=O)O)cccc12 = 8.43

---

molecular target: active form of GP IIb/IIIa (Homo sapiens, UniProt P05106+P08514); experiment: Fluorescence displacement of probe 2-8 from active form of purified GP IIb/IIIa; assay type: binding; details: GP IIb/IIIa 0.64 μM, probe 2-8 1 μM; excitation 340 nm, change in fluorescence at 550 nm; read-out: Ki for nonfluorescent antagonist toward the active form of GP IIb/IIIa
measured-quantity: Ki (nM)

* O=C(O)C[C@@H](CCc1c[nH]c2ccccc12)NC(=O)CNC(=O)CCCC1CCNCC1 | 4
